System: UACC-257 melanoma
assay summary: NCI tumour cell line growth inhibition, 48 h
# cutoff 40 µM applies to TGI; >= gives YES, < gives NO

| compound | label value |
| --- | --- |
| COC1(C)Cc2c(c(C)c(O)c3c2C(=O)C=C(Cl)C3=O)O1 (centres undefined) | YES |
| Cn1c(-c2ccccc2)c/c(=N\NS(C)(=O)=O)c2cc(S(=O)(=O)O)ccc21 | YES |
| Clc1cccc(Cc2cn3cc(-c4ccccc4)nc3s2)c1 | YES |
| Nc1nc(Cl)cc(NCC2(CO)CCC(OCc3ccccc3)C2)n1 (centres undefined) | YES |
| C=C1C(=O)O[C@H]2[C@H]3O[C@@H](C[C@@H]12)[C@](C)(O)CCCC(C)=CCC[C@H]3C | NO |
| O=C1/C(=C/c2cccc([N+](=O)[O-])c2)N=C(c2ccccc2)N1c1ccc2c(c1)Sc1cc(N3C(=O)/C(=C/c4cccc([N+](=O)[O-])c4)N=C3c3ccccc3)ccc1N2 | NO |
| O=C(Cc1nc2ccccc2s1)NC12CC3CC(CC(C3)C1)C2 | YES |
| Cc1ccc(S(=O)(=O)N/N=C2/CC[C@H](C(C)(C)C)C[C@@H]2C)cc1 | NO |
| CN(C)CCOc1cccc(NC2=C(Cl)C(=O)C(Nc3cccc(OCCN(C)C)c3)=C(Cl)C2=O)c1 | NO |

###

Test system: NCI/ADR-RES ovarian
assay summary: NCI tumour cell line growth inhibition, 48 h
Measured TGI, listed per entry.

| compound | TGI |
| --- | --- |
| O=C(Nc1ccc(F)cc1)c1cc2ccc(O)cc2oc1=Nc1cccc(F)c1 | > 100 µM |
| Cc1cc(NC(=O)C(=O)Cc2nc3ccccc3s2)ccc1Cl | > 100 µM |
| COc1ccc(C2SC(C)C(=O)N2NC(=O)C(O)c2ccccc2)cc1 (stereo not given) | > 100 µM |
| CC[C@]12C=CCN3CCC4(c5cc(N=Nc6ccc([N+](=O)[O-])cc6)c(OC)cc5N(C)[C@H]4[C@@](O)(C(=O)OC)[C@@H]1OC(C)=O)[C@@H]32 (stereo not given in full) | 42.2 µM |
| Cn1cc(-c2nc(-c3cn(C)c4ncccc34)cs2)c2cc(F)ccc21 | 8.61 µM |
| COc1cc2c(/C=C3/C(=O)Nc4c3ccc3ccccc43)c(Cl)[nH]c2cc1C | 1.09 µM |
| CCOC(=O)C(SCCO)C(C(=O)OCC)n1cc(C)c(=O)[nH]c1=O (stereo not given) | > 86.6 µM |
| N=C1N=Nc2nc(C3(c4nc5n(c4O)C(=N)N=N5)Cc4ccccc4C3=O)c(O)n21 (stereo not given) | > 100 µM |
| COc1cc(CNC(=O)CCCCCCCCCCSSCCCCCCCCCCC(=O)NCc2ccc(O)c(OC)c2)ccc1O | > 10 µM |
| CNC(=S)N/N=C(/C)CCC/C(C)=N/NC(=S)NC | > 100 µM |
| C[C@]12CCC(=O)C=C1CC[C@@H]1[C@@H]2CC[C@]2(C)C(=O)/C(=C\c3ccccc3)C[C@@H]12 | 72.7 µM |
| Cc1ccc2nc(Cl)c(/C=N/N3C(=O)/C(=C/Cc4ccco4)N=C3c3ccccc3)cc2c1 | > 90.5 µM |
| Cc1ccc2cccc(OC(=O)c3cc4c(cc3Cl)Sc3nccn3S4(=O)=O)c2n1 | 46.2 µM |
| O=S(=O)(c1ccccc1)C1CN(Cc2ccccc2)CCN(Cc2ccccc2)C1 | 78.1 µM |
| CC(C)(C)OC(=O)N1C(=O)OC[C@@H]2C=C[C@@H]21 | > 100 µM |
| N#C/C(N)=C(\C#N)N=CNc1ccccc1N | > 100 µM |
| COc1ccc(C2C3=C(CCCC3=O)N(c3ccccc3)C3=C2C(=O)CCC3)cc1 | > 100 µM |
| COc1ccc(N2C(=O)CC(c3c[nH]c4ccccc34)C2=O)cc1 (stereo not given) | > 100 µM |
| Cc1cc(-c2ccc(Cl)cc2)c(C#N)c(=S)n1C1OC(CO)C(O)C(O)C1O (stereo not given) | > 100 µM |
| Cc1cc2nc3c(C#N)c(-c4ccccc4)cc(Nc4cccc(C(F)(F)F)c4)n3c2cc1C | 20.2 µM |
